# tested_system: Histidine--tRNA ligase (Leishmania infantum)
# Sequence (whole entry): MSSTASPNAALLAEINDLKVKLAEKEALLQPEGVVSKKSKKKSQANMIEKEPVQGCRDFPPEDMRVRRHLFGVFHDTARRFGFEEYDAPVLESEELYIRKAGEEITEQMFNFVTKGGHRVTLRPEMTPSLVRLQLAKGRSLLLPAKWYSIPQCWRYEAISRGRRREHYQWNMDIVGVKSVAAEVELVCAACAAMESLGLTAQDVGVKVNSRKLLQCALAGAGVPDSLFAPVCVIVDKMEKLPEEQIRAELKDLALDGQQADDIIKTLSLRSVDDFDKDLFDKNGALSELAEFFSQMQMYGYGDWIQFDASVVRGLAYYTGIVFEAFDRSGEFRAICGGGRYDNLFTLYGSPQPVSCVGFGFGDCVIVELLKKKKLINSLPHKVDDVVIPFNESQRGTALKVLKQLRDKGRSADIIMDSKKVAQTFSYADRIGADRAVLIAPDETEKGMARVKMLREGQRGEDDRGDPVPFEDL
# protocol_text: Leishmania infantum Histidine tRNA synthetase (LdHisRS)
# Assay type: functional
# Parameters: scale not given: in the data most compounds retested in dose-response had high values
# setup_conditions: 30 µM
Hit rate of the full screen: of about 69,000 compounds, about 420 (0.61%) showed an effect of 50% or more. This is one part of a sample in which strong results are shown more often than they occur.

| compound | Percent Effect (%) |
| --- | --- |
| O=C(c1ccco1)N1C[C@H]2CCCN(Cc3ccoc3)[C@H]2C1 | 16.4 |
| O=C(Nc1ccc(CCN2CCSCC2)cc1)NC1CC1 | 16.4 |
| Cc1ncsc1CN1C[C@@H]2COC[C@]2(CNC(=O)c2ccccc2)C1 | 20.5 |
| CCCn1cc(NC(=O)c2ccc(N(C)CC)cc2)ccc1=O | 31.5 |
| CCCn1cc(NC(=O)c2ccc(NC(=O)NC3CC3)cc2)ccc1=O | 92.8 |
| COCCNC(=O)[C@H]1C[C@@H]2CCN(c3nncs3)C[C@H]2O1 | 5.77 |
| COc1ccc(-c2nc(CN3CCc4c(ncn4C)C3)cs2)cc1 | 57.5 |
| Cn1cnc2c1CCN(Cc1csc(-c3ccc(F)cc3)n1)C2 | 10.2 |
| CCN(CC)C(CNC(=O)c1ccc(S(C)(=O)=O)cc1)c1ccco1 (stereo unspecified) | 19.2 |
| CNc1nc(C)c(-c2nc(-c3c(C)ncc4c3CCNC4)no2)s1 | 7.79 |
| Cn1cc(NC(=O)Nc2cccc3cccnc23)ccc1=O | 114 |
